Each item that follows carries a reported LDH (OD).
Molecular target: lactate dehydrogenase (LDH)
Assay: phage ELISA, 405 nm; LDH coated
result type: LDH (OD)

In [3]: df
Out[3]:
                                     binder  reported_result
0  DGI-2-40F-3-B10 (peptide, not shown: large carriers) peptide: MQAASTLSTYMGAIRMGYPILHWDRGGVQRVDPGLYRGRVAAAGAPVPYPDPLEPRP             1 OD
1  GMWIRPNGHMFLQGGYTARSAAAGAPVPYPDPLEPRP (peptide, not shown: large carriers) [DGI-2-20R-4-G8]           1.1 OD
2  DGI-2-40F-3-C7 (peptide, not shown: large carriers) peptide: HPWVTNMLVFQRPPPPGFWLSDTTPRQRNGLGQVERPSVDAAAGAPVPYPDPLEPRP           0.8 OD
